Molecular target: Prostaglandin E2 receptor EP2 subtype (Homo sapiens, UniProt P43116)
Sequence (P43116 whole entry): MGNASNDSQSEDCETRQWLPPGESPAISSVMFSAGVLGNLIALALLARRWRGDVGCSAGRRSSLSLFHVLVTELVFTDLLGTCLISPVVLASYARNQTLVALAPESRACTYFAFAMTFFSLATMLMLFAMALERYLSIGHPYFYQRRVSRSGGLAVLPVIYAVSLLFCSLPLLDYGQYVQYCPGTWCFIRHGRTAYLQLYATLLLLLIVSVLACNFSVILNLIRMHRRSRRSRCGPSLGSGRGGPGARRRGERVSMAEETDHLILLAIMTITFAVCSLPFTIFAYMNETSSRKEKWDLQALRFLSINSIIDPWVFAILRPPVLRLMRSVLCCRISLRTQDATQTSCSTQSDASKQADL
Experiment: hEP2 cAMP Assay
pIC50: −log10 of the molar value.
recorded-endpoint: pIC50

1. CCOc1cc(-c2cc(NCCc3cc4ccsc4c(F)c3OC)ncn2)ccc1C(=O)O [US11839613, Example 404] | 7.57
2. COc1cc(-c2cc(NCCc3ccc4sccc4c3F)ncn2)ccc1CC(=O)O [US11839613, Example 382] | 6.17
3. O=C(O)c1ccc(-c2cc(NCCc3ccc4sccc4c3F)ncn2)cc1OC1CCC1 [US11839613, Example 366] | 7.52
4. CC(C)Cc1cc(-c2cc(NCCc3ccc4sccc4c3F)ncn2)ccc1CC(=O)O [US11839613, Example 409] | 6.31
5. COc1cc2c(cc1CCNc1cc(-c3ccc(CC(=O)O)c(OC(F)(F)F)c3)ncn1)OCCO2 [US11839613, Example 450] | 6.78

I: CCOc1cc(-c2cc(NCCc3ccc4ccsc4c3C)ncn2)sc1C(=O)O [US11839613, Example 376]
II: C#Cc1cc2c(cc1CCNc1cc(-c3ccc(C(=O)O)c(OCC)c3)ncn1)OCCO2 [US11839613, Example 439]
Between the two listed entries I and II , which has its pIC50 at the higher number? Answer by quoting the chosen item's label. II

The reported measurements were obtained from BindingDB's records for patent US11839613.
